Molecular target: T1, Vibrio maritimus FtsA residues 1-396 (VmFtsA^1-396) (Vibrio maritimus)
T1 chain: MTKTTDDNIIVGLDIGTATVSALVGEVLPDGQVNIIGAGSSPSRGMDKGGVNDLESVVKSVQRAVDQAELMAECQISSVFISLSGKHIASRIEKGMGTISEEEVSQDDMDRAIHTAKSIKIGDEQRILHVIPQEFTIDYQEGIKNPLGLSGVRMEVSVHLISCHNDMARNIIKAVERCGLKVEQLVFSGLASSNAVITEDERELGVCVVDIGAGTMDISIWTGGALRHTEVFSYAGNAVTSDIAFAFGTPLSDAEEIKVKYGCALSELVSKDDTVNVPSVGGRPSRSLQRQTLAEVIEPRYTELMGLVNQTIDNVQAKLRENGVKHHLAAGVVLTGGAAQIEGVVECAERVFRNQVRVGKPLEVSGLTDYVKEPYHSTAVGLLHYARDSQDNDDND
Experiment: AUC; two-step model, first transition (FtsN binding)
quantity: Kd

Param item = MANRDYVRRGKGTSRRPAKKKTSGKKPWRC (Atto 495 (maleimide) on the added C-terminal cysteine) [VmFtsN^1-29-C-Atto 495] ; retrieve measured Kd. 18 nM
